B1: Pistol ribozyme (parent)
chain: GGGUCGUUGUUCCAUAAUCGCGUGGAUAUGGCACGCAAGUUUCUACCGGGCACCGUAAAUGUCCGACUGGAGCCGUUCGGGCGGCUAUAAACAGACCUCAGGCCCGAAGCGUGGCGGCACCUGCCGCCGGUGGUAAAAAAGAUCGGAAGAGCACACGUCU

variants of: B1; experiment: aptazyme ON/OFF ratio, guanine; higher = stronger switching; co-transcriptional cleavage with and without guanine
Reported aptazyme ON/OFF ratio by item:
I'd appreciate a reply containing only the number, no unit.

Answered examples (5):
U7G U8G G9A U10C U11A C13U: 1.2
U7A U8C U10C U11C C12A: 1.14
U7G U8G G9A U10A U11A C12G C13U: 1.33
U7C U10C U11C C12U C13A: 1.25
U7A U8G G9A U10C U11A C13U: 1.2

Enquiry: // query aptazyme ON/OFF ratio value for entry U7A U8G U11C C12A C13U
Return: 1.19

Enquiry: Given the variant U8A U10A U11A C12G C13A , what is its reported aptazyme ON/OFF ratio?
Return: 1.12
